Assay Comment: soluble fraction after stress (log2 fold change); higher = more stays soluble; pooled small domains, quantitative proteomics
Run Parameters: stress: pH 4
Outcome label depends on soluble fraction (log2) relative to -0.3: at/above gives satisfied, below gives not satisfied.

[ask] Identify whether the reported soluble fraction (log2) of the following sequence is -0.3 or greater: `HMITPAARLRALKIRLSVDEVAQIVQRLVNGETVYQIGKPDTGGHAKATVGKINALRLAGQLHFL`
[reply] satisfied

[ask] Identify whether the reported soluble fraction (log2) of the following sequence is -0.3 or greater: `HMHKFMEQNQDRRLSRMKELIGILSEAAKTYYQESREIMSNFQYDRMYDELLELEKETGVVMAGSPTQKV`
[reply] not satisfied

[ask] Identify whether the reported soluble fraction (log2) of the following sequence is -0.3 or greater: `HMHPARITATVRVGEGDLVDIEREAELGGPIHSKGVMILSSFLGARYARTVPLSLSASLVFEQSY`
[reply] satisfied

[ask] Identify whether the reported soluble fraction (log2) of the following sequence is -0.3 or greater: `HMVIVMRKDADAASIEKVVSEVKSRGFMPHVSEGESRTLIGAIGPAPTEELREHFAGLAGVETVVRITK`
[reply] satisfied

[ask] Identify whether the reported soluble fraction (log2) of the following sequence is -0.3 or greater: `HMGTGADKNSWTIGDKVKHRKWGTGTVVKVTGAGEDAELDIAFKSEGIKRLLAAFAPIEKVK`
[reply] satisfied

[ask] Identify whether the reported soluble fraction (log2) of the following sequence is -0.3 or greater: `HMASGLITEEQAKSKALAHAGLSASQVNFIWVKQDWEDGRRVYEVEFYTDDYQEYDYEIDARTGEILSFDY`
[reply] not satisfied

[ask] Identify whether the reported soluble fraction (log2) of the following sequence is -0.3 or greater: `HMPTSLPGIDIDEKNIVSSTGALSFKKVPKKLAIIGGGYIGLEMGSVWSRLGSSVTVIEYLNFITPG`
[reply] satisfied

[ask] Identify whether the reported soluble fraction (log2) of the following sequence is -0.3 or greater: `HMDSINIDEETAKLGPNAPQIIDGIKKWGQGLVAKGVWSDEDFDEFKVFAATSSGINALNKIRKYY`
[reply] satisfied

[ask] Identify whether the reported soluble fraction (log2) of the following sequence is -0.3 or greater: `HMEAVGLTPRQGDVLALLLQGKPNKLIARDLNLSVETVKDHVAAVLRALGVSTRTQAVLAVSQMQQQAAQ`
[reply] satisfied

[ask] Identify whether the reported soluble fraction (log2) of the following sequence is -0.3 or greater: `HMHVGVWIMNEKGEILLEQRASNKKVDPNKWARIGGHVDAGEKPIQAIQREILEEIGVKIPLENFIVLET`
[reply] not satisfied

[ask] Identify whether the reported soluble fraction (log2) of the following sequence is -0.3 or greater: `HMDIKDRSGVTIDESNEAQQESIIRESWAEQKISGNVDNYIAYLKANGMLLETAKIELAALQEKDASLRE`
[reply] not satisfied

[ask] Identify whether the reported soluble fraction (log2) of the following sequence is -0.3 or greater: `HMDIEVEVPNLVGMSLDEAKSIIQSMGLVVGLTIEDPSAKVSDNSVTKQKPTYQTGVKLRSGDMIDIWYAG`
[reply] not satisfied

[ask] Identify whether the reported soluble fraction (log2) of the following sequence is -0.3 or greater: `HMYGVAEFDEKGNVLSIEEKPVQPKSNYAVVGLYFYPNKVVGVASGIKPSARGELEITTVNQTFLRDEELK`
[reply] satisfied

[ask] Identify whether the reported soluble fraction (log2) of the following sequence is -0.3 or greater: `HMYHNKFADLAGFIAFNEKNEEIFTFGKYKGQNVKEVFQRDIGYYGWLQNADFPLYTKKVFTAIQLRSR`
[reply] not satisfied

[ask] Identify whether the reported soluble fraction (log2) of the following sequence is -0.3 or greater: `HMATTIDFTVGDDVQVMNGPLESFTGKVTELNEASQKVKVDVVMFGRVTNVELDFVQVKKIT`
[reply] not satisfied

[ask] Identify whether the reported soluble fraction (log2) of the following sequence is -0.3 or greater: `HMDSTTHALALVRTLPRDQAEAVLLRVVADLDYADVAEIMGRSPGAVRVLVHRGLRRLEQELATRRT`
[reply] not satisfied

[ask] Identify whether the reported soluble fraction (log2) of the following sequence is -0.3 or greater: `HMSITKDNLSIGTNIRISGFSDIGRIISIPNKGNQVQVQIGSAKMNIKINSIVEIIKEEKDFNKNISN`
[reply] satisfied

[ask] Identify whether the reported soluble fraction (log2) of the following sequence is -0.3 or greater: `HMISESIPAKDALLRLLNTAYQTRTNAAGEFYFNDVPPGKYILQASVNDVEIIRENISINEN`
[reply] not satisfied

[ask] Identify whether the reported soluble fraction (log2) of the following sequence is -0.3 or greater: `HMRDDAIQQGREIVERELHRLDLAYTTLTDVLAKLEYEKLDDLYAAVGFGIRSPHSVAAAALQVERDKA`
[reply] not satisfied

[ask] Identify whether the reported soluble fraction (log2) of the following sequence is -0.3 or greater: `HMQVSDEGPIKAILQEVLDKSPTQLADYASGKVKLRQYFFGEAMKALKGKANPQVINKLLDEMLPPVAA`
[reply] satisfied

[ask] Identify whether the reported soluble fraction (log2) of the following sequence is -0.3 or greater: `HMTSQVTVHVVGAVEKPGVVTLDAPSRVQDALEAAGGALPEAELSGVNLARELFDGEQIVVPAQGEDV`
[reply] satisfied

[ask] Identify whether the reported soluble fraction (log2) of the following sequence is -0.3 or greater: `HMGYLNDRQRLIKDFITENQPLKVSDLVKQFPNIGLSTLKKDLQYLRGEQVLTMIGKGKGSVYVLNKK`
[reply] satisfied

[ask] Identify whether the reported soluble fraction (log2) of the following sequence is -0.3 or greater: `HMQAKQVAIPDVANYSVTDAIKKLQDAGFIVSDEQREEANETVSEGKVSRTSPAAGSIRKEGTEIILYKSL`
[reply] satisfied

[ask] Identify whether the reported soluble fraction (log2) of the following sequence is -0.3 or greater: `HMAITLEVAKKHLEMWLEAESEVAINQSYTIGGKSFTRANLAEIRKQIEYWSNKVAELENLA`
[reply] satisfied

[ask] Identify whether the reported soluble fraction (log2) of the following sequence is -0.3 or greater: `HMTNIDRLIGQTAIVKETINNKKEQGVVRINGMDWTARTEEIDEVILKGKPVEILDIQGIKLIVRKK`
[reply] satisfied

[ask] Identify whether the reported soluble fraction (log2) of the following sequence is -0.3 or greater: `HMSPRAIYVTTSDLNMRMQPSPNAYKRGVAPRGTELLVVEWGDDWSKVIFEGDTAYAASRYLSYVKDEP`
[reply] not satisfied

[ask] Identify whether the reported soluble fraction (log2) of the following sequence is -0.3 or greater: `HMSFGWETLEGKEGVTDTDLHPSGWVKVGDEKIFVVSQGEFLGKGTDIVVVSVDGNRVVVKELI`
[reply] not satisfied

[ask] Identify whether the reported soluble fraction (log2) of the following sequence is -0.3 or greater: `HMVAPNSEATTKLIIEKTKYANESPAILMGFKATATMLMAKHVVLPTSKYAYFNEGRALLEKAIK`
[reply] satisfied

[ask] Identify whether the reported soluble fraction (log2) of the following sequence is -0.3 or greater: `HMNPNPYIVLGVDKSMPFGEIKKVYQRKRREFHPDSLVAKGLPDELLQKAQDKFIAIQEAYKSIEKNQV`
[reply] satisfied

[ask] Identify whether the reported soluble fraction (log2) of the following sequence is -0.3 or greater: `HMDPEEQIQSREIWEAVERALDGMQEKGRRVVIALLEGQTQLEVSRAAGISQPLISYYLKSFRTKVRTELG`
[reply] satisfied

[ask] Identify whether the reported soluble fraction (log2) of the following sequence is -0.3 or greater: `HMEPEVSNTYEKVLGMHHFSSTRSHQLHDLVRQANALELSLGEIESIAQSAKDGAQVISDIKHWMEPNRQ`
[reply] satisfied

[ask] Identify whether the reported soluble fraction (log2) of the following sequence is -0.3 or greater: `HMAVFRVGDKVKSMEGMIGEVRGINGRLIQVATPYGLRDYYPHQITKVENPLAAAPAPLNEEA`
[reply] satisfied

[ask] Identify whether the reported soluble fraction (log2) of the following sequence is -0.3 or greater: `HMISDAEWTIMKALWQSEDKKMTLKEIAEAVADSGWSYTTVRTMVGRLVEKEAIEADESHPRNFRYSAA`
[reply] not satisfied
